Cited source for all entries: paper PMC6600370

- Assayed target: Xanthine oxidase (from bovine milk) (Bos taurus, UniProt P80457)
- Construct: Xanthine oxidase (from bovine milk); purchased Sigma-Aldrich; host or cells: bovine milk (natural source)
- Sequence (P80457 whole entry): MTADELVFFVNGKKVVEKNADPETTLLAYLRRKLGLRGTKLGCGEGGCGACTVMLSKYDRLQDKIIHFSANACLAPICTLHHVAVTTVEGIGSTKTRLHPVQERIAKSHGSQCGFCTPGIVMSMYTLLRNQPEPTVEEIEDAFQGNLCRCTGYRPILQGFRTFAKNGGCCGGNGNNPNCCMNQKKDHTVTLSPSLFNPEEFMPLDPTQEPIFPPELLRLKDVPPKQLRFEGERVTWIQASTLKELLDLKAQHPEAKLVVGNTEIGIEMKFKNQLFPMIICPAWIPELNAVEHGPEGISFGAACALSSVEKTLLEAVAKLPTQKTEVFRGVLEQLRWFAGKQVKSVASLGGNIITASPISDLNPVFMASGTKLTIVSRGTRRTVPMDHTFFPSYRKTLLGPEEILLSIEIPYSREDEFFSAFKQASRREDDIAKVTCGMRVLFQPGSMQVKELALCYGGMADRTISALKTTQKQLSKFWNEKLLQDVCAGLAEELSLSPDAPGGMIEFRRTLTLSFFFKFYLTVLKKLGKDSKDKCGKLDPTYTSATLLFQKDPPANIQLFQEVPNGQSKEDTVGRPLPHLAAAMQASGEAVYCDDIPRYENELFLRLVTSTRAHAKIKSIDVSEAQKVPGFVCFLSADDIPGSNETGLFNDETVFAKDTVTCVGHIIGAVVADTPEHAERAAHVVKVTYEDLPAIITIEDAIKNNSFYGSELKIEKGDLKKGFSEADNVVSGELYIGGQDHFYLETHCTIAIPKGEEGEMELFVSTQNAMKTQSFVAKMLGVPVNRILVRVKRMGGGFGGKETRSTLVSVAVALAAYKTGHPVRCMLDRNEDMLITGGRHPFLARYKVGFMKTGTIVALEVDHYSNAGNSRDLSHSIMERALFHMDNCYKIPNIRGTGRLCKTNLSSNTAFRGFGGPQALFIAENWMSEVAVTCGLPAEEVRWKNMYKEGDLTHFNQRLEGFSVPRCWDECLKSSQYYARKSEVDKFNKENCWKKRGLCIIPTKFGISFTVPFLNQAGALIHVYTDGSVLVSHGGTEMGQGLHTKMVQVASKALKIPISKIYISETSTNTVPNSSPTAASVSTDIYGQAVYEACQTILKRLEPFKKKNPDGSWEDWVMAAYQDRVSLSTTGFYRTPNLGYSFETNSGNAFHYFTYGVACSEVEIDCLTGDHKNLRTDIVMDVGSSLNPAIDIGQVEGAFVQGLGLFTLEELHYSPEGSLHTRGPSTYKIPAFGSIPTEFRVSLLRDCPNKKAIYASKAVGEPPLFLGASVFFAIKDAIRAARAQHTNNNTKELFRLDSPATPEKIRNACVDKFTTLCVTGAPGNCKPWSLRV
- Test name: XO assay with hypoxanthine substrate (xanthine + uric acid formation, HPLC)
- Assay type: biochemical
- Condition label: 5 μM hypoxanthine, 4 min incubation, xanthine + uric acid formation; read-out: Hypoxanthine oxidation IC50
Assay readout: pIC50
In simple prose, pIC50 is minus the logarithm base ten of a concentration in moles per litre.

Q) Annotate the molecule O=c1c(O)c(-c2ccc(O)c(OS(=O)(=O)O)c2)oc2cc(O)cc(O)c12 [Q3′S, Quercetin-3′-sulfate] with its measured pIC50.
A) 6.68
